METHOD_NOTES: FXN promoter activators, primary screen, cell-based, luciferase luminescence, HEK293 lucGAA850 (AID 540364);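 further: 0% = DMSO wells and 100% = 10 µM SAHA wells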
CONDITION_NOTES: HEK293 lucGAA850 FXN promoter luciferase reporter, 24 h; at 6 µM; percent of 10 µM SAHA response
The whole screen tested about 360,000 compounds, of which about 2,000 (0.56%) were called active.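 How the source made its calls: active means activation above the average of all compounds screened plus 3 SD, cutoff fixed separately per campaign (cut at about 7.5% in these data); inactive means the rest.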 Only a selection was taken, and actives are over-represented in it overall.
Possible outcomes: 1.0 (active), 0.0 (inactive)

{"columns": ["COMPOUND", "CLASSIFICATION"],
 "data": [
  ["CCCCc1ccc(S(=O)(=O)NC(=O)C2(C)CCN2C(=O)c2c(C)noc2C)cc1 (configuration not stated)", 0.0],
  ["COc1ccc(S(=O)(=O)N(C)C)cc1NC(=O)CSc1ncccn1", 0.0],
  ["CC[C@@]12C(=O)N(c3ccccc3)C(=O)N1[C@H](c1ccc(Br)cc1)[C@@H]1C(=O)N(C(C)(C)C)C(=O)[C@@H]12", 1.0],
  ["CC(=O)Nc1cccc(-c2nc3ccccc3s2)c1C", 0.0],
  ["COc1ccc(/C=C2\\CCCC3C2=NN(C(=O)c2scnc2C)C3c2ccc(OC)cc2)cc1 (configuration not stated)", 0.0],
  ["COc1ccc(-n2nc(C(=O)NCC(=O)Nc3cccc(C)n3)c3ccccc3c2=O)cc1", 0.0],
  ["COc1ccc(CCNCC(O)Cn2ccc3ccccc32)cc1OC (configuration not stated)", 0.0],
  ["CC1(C(=O)NCc2cccc3ccccc23)CCN1Cc1ccc(-c2ccccc2)o1 (configuration not stated)", 1.0],
  ["CCOC(=O)N1CCC(c2cc(=O)n(-c3ccccc3)[nH]2)CC1", 0.0],
  ["CCC(=O)NC(=Nc1nc2ccccc2s1)NC(=O)CC", 1.0],
  ["O=c1c2c(-c3ccccc3)ccnc2[nH]n1-c1ccccc1", 0.0],
  ["N#Cc1c(N)nc2c3c(sc(=N)c2c1N)NC(=O)CC3c1ccccc1Cl (configuration not stated)", 1.0],
  ["O=c1[nH]cnc2c1c(-c1ccccc1)cn2-c1ccc(F)cc1", 1.0],
  ["CSc1ccc(-c2c(C#N)c(N)nc3c2c(C)nn3-c2ccccc2)cc1", 0.0],
  ["Cc1cccc([C@@H]2[C@@H]3C(=O)N(Cc4ccccc4)C(=O)[C@@H]3[C@]3(C)C(=O)N(c4ccc(Br)cc4)C(=O)N23)c1", 0.0],
  ["CN(C(=O)c1ccccc1)c1nccnc1C#N", 0.0],
  ["COC(=O)C1CCN(CC(N)=O)CC1", 0.0],
  ["CNC(=O)c1ccc(CN(C)C(=O)c2cc(C3CC3)nc3c2cnn3C(C)C)cc1", 0.0],
  ["CC(C)c1ccc(S(=O)(=O)N2CCC3(CC2)OCCO3)cc1", 0.0],
  ["Cc1ccc(N2C(=O)N3[C@@H]4c5ccccc5OC[C@@H]4[C@@H](c4ccccc4)[C@@]3(C)C2=O)cc1", 0.0],
  ["CCCS(=O)(=O)N1CCC(C(=O)NCCCN(C)Cc2ccccc2)CC1", 0.0],
  ["CC(C)(C)c1ccc(C(=O)NCc2ccco2)cc1", 1.0],
  ["C#CC(C)(C)NC(=O)CSc1nc2c(c(=O)n(C)c(=O)n2C)n1CCCC", 0.0],
  ["COc1ccc(NS(=O)(=O)c2ccc3oc(SCC(N)=O)nc3c2)cc1", 0.0],
  ["Cc1ccc(CN(C(=O)c2sc3ccccc3c2Cl)C2CCS(=O)(=O)C2)cc1 (configuration not stated)", 0.0],
  ["CC(C)CC(=O)N/C(N)=N/c1nc2ccccc2s1", 0.0],
  ["COc1ccc([C@@H]2[C@@H]3C(=O)N(C(C)(C)C)C(=O)[C@@H]3[C@]3(Cc4ccccc4)C(=O)N(c4cccc(Br)c4)C(=O)N23)cc1", 0.0],
  ["Cc1ccc(C(=O)N2CCC(n3nccc3NC(=O)Nc3cccc(F)c3)CC2)cn1", 0.0],
  ["CN(C)S(=O)(=O)c1ccc2oc(SCC(=O)Nc3ccccc3F)nc2c1", 1.0],
  ["CC1=C(C(=O)N2CCOCC2)CC(CC(=O)NCc2cccc3ccccc23)C(=O)N1CCC1=CCCCC1 (configuration not stated)", 0.0],
  ["O=S(=O)(Nc1ccc2nc(-c3ccco3)[nH]c2c1)c1ccccc1", 0.0],
  ["CC(=O)c1ccc(NC(=O)CCc2nnc3ccc(NCc4ccco4)nn23)cc1", 0.0],
  ["CCCCn1c(SCC(=O)NCCc2ccc(OC)c(OC)c2)nc2c1c(=O)n(C)c(=O)n2C", 1.0],
  ["COc1ccccc1-c1c(C#N)c(N)nc2c1CCC2", 0.0],
  ["CCCCNC(=O)N(O)C1N(/N=C/c2ccc(N(C)C)cc2)C(=S)SC1(C)C (configuration not stated)", 0.0],
  ["Cc1c(C(C)(C)O)[nH]c2ccc(C#N)cc12", 0.0],
  ["COc1cc(Cn2c3ccc(NC(=O)CC(C)c4ccccc4)cc3c(=O)n2C)ccc1F (configuration not stated)", 0.0],
  ["O=C(Cc1ccccc1)Nc1ccc(C(=O)Nc2ccccc2C(=O)O)cc1", 0.0],
  ["CC(=O)CCS(=O)(=O)c1ccc(C)c(C)c1", 0.0],
  ["COc1ccc(C2CC(=O)Nc3sc(=N)c4c(N)c(C#N)c(N)nc4c32)cc1OC (configuration not stated)", 0.0],
  ["CCn1c(NCCc2ccc(OC)c(OC)c2)nc2c1c(=O)n(C)c(=O)n2C", 0.0],
  ["O=C(Nc1ccc2c(c1)OCCO2)c1cnccn1", 1.0]
]}

----------
METHOD_NOTES: FXN promoter activators, primary screen, cell-based, luciferase luminescence, HEK293 lucGAA850 (AID 540364);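 further: 0% = DMSO wells and 100% = 10 µM SAHA wells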
CONDITION_NOTES: HEK293 lucGAA850 FXN promoter luciferase reporter, 24 h; at 6 µM; active compounds read high; percent of 10 µM SAHA response
In all, about 360,000 compounds went through this assay and about 2,000 (0.56%) were called active. The full list was thinned out, with actives kept by preference.

{"columns": ["COMPOUND", "activation, %"],
 "data": [
  ["CC1(Cc2ccccc2C#N)C(=O)Nc2ccc(-c3ccc4[nH]ccc4c3)cc21 (stereo not given)", -5.44],
  ["Cc1cc(OCc2cc(C(=O)NCc3cc(C(C)C)no3)no2)cc(C)c1Cl", 8.34],
  ["COc1ccc(C#Cc2c(-c3ccc(OC)cc3)oc3ccc(-c4ccc5c(c4)OCO5)cc23)cc1", 0.99],
  ["CSCCC(NC(=O)COc1ccccc1)C(=O)OCC(=O)c1cc2ccccc2o1 (stereo not given)", -0.05],
  ["COc1ccc(OCc2cc(C(=O)NCC3(C)COC3)no2)c(Cl)c1", 4.24],
  ["CC1(Cc2cccc(C#N)c2)C(=O)Nc2ccc(-c3cccc(C(F)(F)F)c3)cc21 (stereo not given)", 11.2],
  ["COc1ccc2[nH]c3nc(SCC(=O)NC4CC4)nnc3c2c1", 0.57],
  ["COc1ccc(-c2cc(NC(C)=O)c3ncc(-c4cc(OC)c(OC)c(OC)c4)n3c2)cn1", -2.13],
  ["Cc1ccc(Sc2ccc(NC(=O)c3ccc(F)cc3)cc2C#N)cc1", -1.85],
  ["Nn1cnnc1N/N=C/c1cc([N+](=O)[O-])c(Cl)cc1Cl", -1.71]
]}

----------
METHOD_NOTES: FXN promoter activators, primary screen, cell-based, luciferase luminescence, HEK293 lucGAA850 (AID 540364);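 further: 0% = DMSO wells and 100% = 10 µM SAHA wells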
CONDITION_NOTES: HEK293 lucGAA850 FXN promoter luciferase reporter, 24 h; at 6 µM; active compounds read high; percent of 10 µM SAHA response
Hit rate of the full screen: of about 360,000 compounds, about 2,000 (0.56%) were called active. This excerpt belongs to a sample that is enriched for actives.
Below, each entry is listed with its recorded activation.

{"columns": ["MOLECULE", "activation [%]"],
 "data": [
  ["CC12C(=O)N(c3ccccc3)C(=O)C1C(c1ccccc1)N1CCCN12 (centres undefined)", -0.94],
  ["CCc1ccc(N(C(=O)c2csnn2)C(C(=O)NC2CCCCC2)c2cccnc2)cc1 (centres undefined)", -1.27],
  ["O=C1[C@H]2[C@@H](c3ccc(C(F)(F)F)cc3)N[C@]3(CCCN(Cc4ccc(Cl)cc4)C3=O)[C@H]2C(=O)N1Cc1ccccc1", -7.53],
  ["Cc1cccc(N2C(=O)N3[C@H](c4ccc(F)cc4)[C@@H]4C(=O)N(C5CCCCC5)C(=O)[C@@H]4[C@]3(Cc3ccccc3)C2=O)c1", 5.49],
  ["O=C(NC1CCCC1)C(c1ccco1)N(C(=O)c1csnn1)c1ccccc1 (centres undefined)", 0.36],
  ["C[C@@]12C(=O)N(c3cccc(Br)c3)C(=O)N1[C@H](c1ccc(Cl)cc1)[C@@H]1C(=O)N(C3CCCCC3)C(=O)[C@@H]12", 7.88],
  ["O=C1CC(c2c(F)cccc2Cl)C(n2cncn2)C(O)=C1C1NCCc2ccccc21 (centres undefined)", -1.97],
  ["CC(OC(=O)CCC(=O)c1ccccc1)C(=O)Nc1ccc(F)cc1 (centres undefined)", 0.37],
  ["Fc1ccc2nc(N3CCCCC3)sc2c1", 8.32]
]}

Data provenance is PubChem BioAssay AID540364.
